Data provenance is ChEMBL document CHEMBL1933011.

- MEASUREMENT_DESCRIPTION: Safety index, ratio of IC50 for human HepG2 cells to IC50 for Entamoeba histolytica HM-1:IMSS
- Format: toxicity, cell-based
- CONDITION_PARAMETERS: read-out: Ratio IC50
MEASUREMENT_TYPE: selectivity ratio

Some molecules with recorded selectivity ratio:
> print(dat)
                                   molecule   measurement.type  reported.value
1  O=S(=O)(Nc1nc(NS(=O)(=O)c2ccc(Cl)cc2Cl)nc(-c2ccc3c(c2)OCO3)n1)c1ccc(Cl)cc1Cl  selectivity ratio          > 39.1
2  Cc1ccc(S(=O)(=O)n2nnnc2-c2ccc3c(c2)OCO3)cc1  selectivity ratio          > 16.4
3  O=S(=O)(c1ccccc1)n1nnnc1-c1ccc2c(c1)OCO2  selectivity ratio          > 13.2
4  O=S(=O)(c1ccc(Cl)cc1Cl)n1nnnc1-c1ccc2c(c1)OCO2  selectivity ratio            12.3
5  O=S(=O)(c1ccc(Cl)cc1)n1nnnc1-c1ccc2c(c1)OCO2  selectivity ratio          > 20.6
6  CC(C)c1ccc(S(=O)(=O)Nc2nc(NS(=O)(=O)c3ccc(C(C)C)cc3)nc(-c3ccc4c(c3)OCO4)n2)cc1  selectivity ratio          > 35.1
7  O=[N+]([O-])c1ccc(S(=O)(=O)Nc2nc(NS(=O)(=O)c3ccc([N+](=O)[O-])cc3)nc(-c3ccc4c(c3)OCO4)n2)cc1  selectivity ratio            > 98
8  CC(C)c1ccc(S(=O)(=O)n2nnnc2-c2ccc3c(c2)OCO3)cc1  selectivity ratio          > 15.9

The reported selectivity ratio of the molecule O=S(=O)(Nc1nc(NS(=O)(=O)c2ccc(Cl)cc2)nc(-c2ccc3c(c2)OCO3)n1)c1ccc(Cl)cc1 was > 95.2

The reported selectivity ratio of the molecule Cc1ncc([N+](=O)[O-])n1CCO [METRONIDAZOLE] was > 55.5

The reported selectivity ratio of the molecule O=[N+]([O-])c1ccc(S(=O)(=O)n2nnnc2-c2ccc3c(c2)OCO3)cc1 was 22.6

The reported selectivity ratio of the molecule Cc1ccc(S(=O)(=O)Nc2nc(NS(=O)(=O)c3ccc(C)cc3)nc(-c3ccc4c(c3)OCO4)n2)cc1 was > 46.5

The reported selectivity ratio of the molecule O=S(=O)(Nc1nc(NS(=O)(=O)c2ccccc2)nc(-c2ccc3c(c2)OCO3)n1)c1ccccc1 was > 38.5
